// provenance: patent US8039644B2

# ASSAYED TARGET: recombinant human S1P1 receptor (Homo sapiens)
# Sequence (P21453 whole entry): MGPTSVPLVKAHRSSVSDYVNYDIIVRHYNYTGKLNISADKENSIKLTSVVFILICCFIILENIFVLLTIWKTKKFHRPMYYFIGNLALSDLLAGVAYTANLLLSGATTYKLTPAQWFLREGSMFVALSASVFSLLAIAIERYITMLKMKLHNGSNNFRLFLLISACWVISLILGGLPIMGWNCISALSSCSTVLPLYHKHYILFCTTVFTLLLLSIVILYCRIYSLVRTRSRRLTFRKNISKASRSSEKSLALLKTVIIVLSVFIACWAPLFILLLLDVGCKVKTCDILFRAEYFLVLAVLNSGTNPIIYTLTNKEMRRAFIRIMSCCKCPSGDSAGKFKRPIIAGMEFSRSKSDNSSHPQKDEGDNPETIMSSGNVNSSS
# ASSAY PROCEDURE: GTPγS assay to determine EC50 values
# SETUP CONDITIONS: GTPγS binding, membrane preparations of CHO cells expressing recombinant human S1P1 receptor
ENDPOINT: EC50 (nM)
One number for each entry, in nM.

Reference set, count: 5
Value lookup for EC50; key = CCc1sc(C(=O)CCc2ccc(S(=O)(=O)NCCN)cc2)c2c1CC(C)(C)CC2
8

Try this compound too: Cc1cc(C)cc(NCC(=O)c2sc(C(F)(F)F)c3c2CCC(C)(C)C3)c1
9.7

Try this compound too: CCc1sc(C(=O)CCc2ccc(OCCCNS(C)(=O)=O)cc2OC)c2c1CC(C)(C)CC2
1.8

Try this compound too: CCc1cc(CCC(=O)c2sc(CC)c3c2CCC(C)(C)C3)cc(C)c1CCCN
1.8

Try this compound too: CCc1sc(C(=O)CCc2cc(C)c(OCC(O)CN)c(C)c2)c2c1CC(C)(C)CC2 (stereo not shown)
1.7

Batch: EC50 for all items listed.
1. CCc1sc(C(=O)CCc2cc(C)c(OCCNC(C)C)c(C)c2)c2c1CC(C)(C)CC2
2. CCc1sc(C(=O)CNc2ccccc2OC)c2c1CC(C)(C)CC2
3. CCCc1sc(C(=O)CCc2cc(C)c(OC[C@H](O)CO)c(C)c2)c2c1CC(C)(C)CC2
4. COc1cc(CCC(=O)c2sc(C)c3c2CCC(C)(C)C3)cc(Cl)c1OCC(O)CNCCC(=O)O (stereo not shown)
5. CCc1sc(C(=O)CCc2cc(C)c(OCC(O)CNC(CO)CO)c(C)c2)c2c1CC(C)(C)CC2 (stereo not shown)
6. CCc1sc(C(=O)CCc2ccc(OCCNS(C)(=O)=O)cc2OC)c2c1CC(C)(C)CC2
7. Cc1cc(-c2noc(-c3scc4c3CCC3(CC3)C4)n2)cc(C)c1OCC(O)CNC(=O)CO (stereo not shown)

[4.1, 6.1, 4.2, 5.9, 1.8, 2.9, 6.2]

Batch: EC50 for all items listed.
1. CCc1sc(C(=O)CCc2cc(C)c(OCCO)c(C)c2)c2c1CC(C)(C)CC2
2. CCc1cc(CCC(=O)c2sc(CC)c3c2CCC(C)(C)C3)cc(C)c1CCCNC(=O)CCNC
3. Cc1cc(CCC(=O)c2sc(C)c3c2CCC(C)(C)C3)cc(C)c1OC[C@@H](O)CO
4. CCc1sc(C(=O)CCc2cc(Cl)c(OCCNC(=O)CNC)c(OC)c2)c2c1CC(C)(C)CC2
5. CCc1sc(C(=O)CCc2cc(C)c(OCC(O)CN3CC(C(=O)O)C3)c(C)c2)c2c1CC(C)(C)CC2 (stereo not shown)
6. Cc1cc(CCC(=O)c2sc(C(F)(F)F)c3c2CCC(C)(C)C3)cc(C)c1NCC(O)CO (stereo not shown)
7. CCc1sc(C(=O)CCc2cc(C)c(OCC(O)COC)c(C)c2)c2c1CC(C)(C)CC2 (stereo not shown)

1: 2.5; 2: 3.4; 3: 2.4; 4: 3.1; 5: 1; 6: 2.6; 7: 5.9

Batch: EC50 for all items listed.
1. Cc1cc(CCC(=O)c2sc(C)c3c2CCC(C)(C)C3)cc(C)c1OCC(O)CNCCC(=O)O (stereo not shown)
2. COc1cc(CCC(=O)c2sc(C)c3c2CCC(C)(C)C3)cc(Cl)c1OCC(O)CNC(=O)CO (stereo not shown)

2.8
5.1
